Each recorded value in this set is attributed to the supplement of paper PMC8671470.

- Tested on: MV4-11
- Test Summary: cell viability (% survival relative to DMSO control, bortezomib = 0%); higher = less cytotoxic
- Condition Description: 10 nM; 72 h
Observed Property: cell viability (%)

CCCc1cc(-c2nc(-c3ccc(C)cc3)cs2)ccn1 :: 95.9
COc1ccc(S(=O)(=O)N2CCN(S(=O)(=O)c3ccc4c(c3)OCCO4)CC2)cc1 :: 93.6
COC(=O)[C@]12CCC(C)(C)C[C@H]1[C@H]1C(=O)C=C3[C@@]4(C)C=C(C#N)C(=O)C(C)(C)[C@@H]4CC[C@@]3(C)[C@]1(C)CC2 :: 111
CC(C)(C#N)c1cc(Cn2cncn2)cc(C(C)(C)C#N)c1 :: 99.4
N#CC(C#N)=NNc1ccc(OC(F)(F)F)cc1 :: 101
COc1ccc(C(=O)Nc2c(Cl)cncc2Cl)cc1OC1CCCC1 :: 110
O=C(O)c1cc(Cl)cc(Cl)c1O :: 106
Oc1ccc(Nc2nc(-c3ccc(Cl)cc3)cs2)cc1 :: 99.2
O=C1O/C(=C/Br)CCC1c1cccc2ccccc12 (stereo not drawn) :: 106
O=C1O[C@H]([C@@H](O)CO)C(O)=C1O [Vitamin C (ascorbate)] :: 102
O=C(NCCCCCCNC(=O)ONC1=CCCCC1)ONC1=CCCCC1 :: 104
C[C@](N)(Cc1ccc(O)cc1)C(=O)O :: 87.3
NC(=O)c1cccc(-c2cccc(OC(=O)NC3CCCCC3)c2)c1 :: 96.5

====

Property: cell viability; scope: individual compounds
- System: myeloid leukemia patient primary cells Pat.7
- Test Summary: cell viability (% survival relative to DMSO control); higher = less cytotoxic
- Condition Description: 1 nM; 72 h
Observed Property: cell viability (%)

COC(=O)[C@]12CCC(C)(C)C[C@H]1[C@H]1C(=O)C=C3[C@@]4(C)C=C(C#N)C(=O)C(C)(C)[C@@H]4CC[C@@]3(C)[C@]1(C)CC2 :: 97.6
C[C@H](NC(=O)c1sccc1OCc1ccc(Cl)cc1)c1ccccc1 :: 93.1
O=C1O/C(=C/Br)CCC1c1cccc2ccccc12 (stereo not given) :: 57.6
CCC(=O)N1CCN(c2ccc(-n3c(=O)ccc4cnc5ccc(-c6cnc7ccccc7c6)cc5c43)cc2C(F)(F)F)CC1 :: 75.7

====

Each entry below carries its reported cell viability.
- Test system: THP-1
- Test Summary: cell viability (% survival relative to DMSO control, bortezomib = 0%); higher = less cytotoxic
- Condition Description: 100 nM; 72 h
Counter-ions that a name gives are not always drawn.
Observed Property: cell viability (%)

O=C(C1CC1)N1CC[C@@H](C=C2NNC(=O)N2c2ccc(-c3ccc4occc4c3)cc2)C1 :: 104
COC(=O)[C@]12CCC(C)(C)C[C@H]1[C@H]1C(=O)C=C3[C@@]4(C)C=C(C#N)C(=O)C(C)(C)[C@@H]4CC[C@@]3(C)[C@]1(C)CC2 :: 108
CC(C)c1nc(CN(C)C(=O)N[C@H](C(=O)N[C@@H](Cc2ccccc2)C[C@H](O)[C@H](Cc2ccccc2)NC(=O)OCc2cncs2)C(C)C)cs1 :: 107
C=C(C=NNC(=N)N)NNC(=N)N :: 94.9
Nc1ccccc1C(=O)C[C@H](N)C(=O)O :: 101
Cc1cc(CS(=O)(=O)c2ccccc2)cc(OCc2ccc(CN3CCC[C@@H]3CO)cc2)c1 [PF-543 hydrochloride] :: 111
